Provide the recorded fraction unbound at 24 h for the entries that follow.
# measurement.description: Plasma protein binding in human assessed as unbound fraction incubated for 24 hrs by equilibrium dialysis based Rapidfire-QToF mass spectrometric analysis
# Format: ADME, cell-free
Enter a number only.

Query: Need fraction unbound at 24 h of "Cc1nc(-c2nnn(C)c2NC(=O)O[C@H](CF)c2ccccc2)ccc1NS(C)(=O)=O" , thanks.
Response: 0.29

Query: Need fraction unbound at 24 h of "Cc1nc(-c2nnn(C)c2NC(=O)O[C@H](C)c2cccnc2Cl)ccc1NS(C)(=O)=O" , thanks.
Response: 0.17

Query: Need fraction unbound at 24 h of "C[C@@H](OC(=O)Nc1c(-c2ccc(NS(C)(=O)=O)cn2)nnn1C)c1cccnc1F" , thanks.
Response: 0.3

Query: Need fraction unbound at 24 h of "Cc1nc(-c2nnn(C)c2NC(=O)O[C@H](C)c2ccccc2Cl)ccc1NS(C)(=O)=O" , thanks.
Response: 0.13

Query: Need fraction unbound at 24 h of "C[C@@H](OC(=O)Nc1c(-c2ccc(NC(=O)c3cnc(C(F)(F)F)nc3)cn2)nnn1C)c1cc(F)cnc1F" , thanks.
Response: 0.19

Query: Need fraction unbound at 24 h of "C[C@@H](OC(=O)Nc1c(-c2ccc(NS(C)(=O)=O)cn2)nnn1C)c1ccccc1" , thanks.
Response: 0.27

Query: Need fraction unbound at 24 h of "Cc1nc(-c2nnn(C)c2NC(=O)O[C@H](C)c2cc(F)cnc2Cl)ccc1NS(C)(=O)=O" , thanks.
Response: 0.13

Query: Need fraction unbound at 24 h of "Cc1nc(-c2nnn(C)c2NC(=O)O[C@@H](c2ccccc2)C(F)(F)F)ccc1NS(C)(=O)=O" , thanks.
Response: 0.2

Query: Need fraction unbound at 24 h of "C[C@@H](OC(=O)Nc1c(-c2ccc(NC(=O)C3(C#N)CC3)cn2)nnn1C)c1cc(F)cnc1F" , thanks.
Response: 0.46
